- assayInfo: RP, Waters ACQUITY UPLC BEH C18, 100 × 2.1 mm, 1.7 µm, 0.3 mL/min, estimated dead time 0.73 min; A: water + 0.1% formic acid, pH 3; B: methanol + 0.1% formic acid, pH 3; gradient (min/%B) 0/10 14/90 16/90 18/10
- conditionLabel: stereoisomer not certain
quantity: LC retention time (min)
Return type: number; implicit unit min.

QUERY: Determine from records and report LC retention time for CC(C)(C)NCC(O)c1ccccc1Cl (centres undefined)
RESULT: 5.6

QUERY: Input CC12C=CC(=O)C=C1CCC1C3CC(O)C(O)(C(=O)CO)C3(C)CC(O)C12F (centres undefined) , output reported LC retention time.
RESULT: 6.95

QUERY: Read off the recorded LC retention time for CCC1OC(=O)C(C)C(OC2CC(C)(OC)C(O)C(C)O2)C(C)C(OC2OC(C)CC(N(C)C)C2O)C(C)(OC)CC(C)C(=O)C(C)C(O)C1(C)O (centres undefined)
RESULT: 10.5

QUERY: Report LC retention time, nothing else, for this compound: N#Cc1c[nH]cc1-c1cccc(Cl)c1Cl
RESULT: 9.52

QUERY: Identify the reported LC retention time for the following entry. OC(Cn1cncn1)(c1ccc(F)cc1)c1ccccc1F (centres undefined)
RESULT: 8.93

QUERY: Look up LC retention time of Clc1ccccc1CN1CCc2sccc2C1 and report it.
RESULT: 12.1

QUERY: Annotate the compound COP(=S)(OC)Oc1c(Cl)cc(C)cc1Cl with its measured LC retention time.
RESULT: 12.1

QUERY: Look up and report measured LC retention time for this entry: CC1(C)CCC(Cc2ccc(Cl)cc2)C1(O)Cn1cncn1 (centres undefined)
RESULT: 11.9

QUERY: Read off the recorded LC retention time for CCCCC1C(=O)N(c2ccccc2)N(c2ccccc2)C1=O
RESULT: 11.6

----------
Please provide measured LC retention time for the entries that follow.
- assayInfo: RP, Waters ACQUITY UPLC BEH C18, 100 × 2.1 mm, 1.7 µm, 0.3 mL/min, estimated dead time 0.73 min; A: water + 0.1% formic acid, pH 3; B: methanol + 0.1% formic acid, pH 3; gradient (min/%B) 0/10 14/90 16/90 18/10
- conditionLabel: stereoisomer not certain
A number alone suffices; assume min.

QUERY: Using the record for CCC(C(=O)O)C1CCC(C)C(C(C)C(O)C(C)C(=O)C(CC)C2OC3(C=CC(O)C4(CCC(C)(C5CCC(O)(CC)C(C)O5)O4)O3)C(C)CC2C)O1 (stereo not drawn) , state its measured LC retention time.
RESULT: 15.9

QUERY: Identify measured LC retention time corresponding to CCN(CC)C(=O)C(C)Oc1cccc2ccccc12 (stereo not drawn) [Napropamide]
RESULT: 11

QUERY: Please look at this compound and report its LC retention time: O=C1CCc2cccc3c2N1CC3
RESULT: 7.09

QUERY: For the compound CCCCCc1cc(O)c2c(c1)OC(C)(C)C1CCC(C)=CC21 (stereo not drawn) , give its measured LC retention time value.
RESULT: 15.2

QUERY: Supply reported LC retention time belonging to this compound: CCON=C(OC(=O)c1ccccc1)c1c(OC)ccc(Cl)c1OC [Benzoximate]
RESULT: 12.1

QUERY: Look up and state reported LC retention time for CCCCC(C)C(OC(=O)CC(CC(=O)O)C(=O)O)C(CC(C)CC(O)CCCCC(O)CC(O)C(C)N)OC(=O)CC(CC(=O)O)C(=O)O (stereo not drawn)
RESULT: 9.48

QUERY: Return value of LC retention time for input COP(=S)(OC)SCC(=O)N(c1ccc(Cl)cc1)C(C)C , no commentary.
RESULT: 11.7

QUERY: Return LC retention time (reported value) for this compound: CCCCN(CC)C(=O)SCCC [Pebulate (Tillam)]
RESULT: 12.1
